Test Summary: Toxicity liver stage against HepG2, at 10uM
Assay type: cell-based
Parameters: test concentration 10 uM, cell line HepG2-A16-CD81EGFP
Condition Summary: human, HepG2-A16-CD81EGFP cells; read-out: INHIBITION
Kindly supply the reported cytotoxicity at 10 µM values for the records listed here.
Give bare numbers, in %.

In the examples that follow, each entry is paired with its recorded cytotoxicity at 10 µM.
{"Compound": "COc1ccc(NC(=O)C(c2cccc(F)c2)N2CCOCC2)cc1 (stereo not given)", "Property Label": "cytotoxicity at 10 µM", "Unit Text": "%", "Measured Result": 2.42}
{"Compound": "Cc1nn2c(nc1=O)-c1ccccc1NC2C(=O)O (stereo not given)", "Property Label": "cytotoxicity at 10 µM", "Unit Text": "%", "Measured Result": 5.32}
{"Compound": "Cc1nc(N2CCCC2)ncc1-c1cc(O)n2ncnc2n1", "Property Label": "cytotoxicity at 10 µM", "Unit Text": "%", "Measured Result": 10.6}
{"Compound": "CC(=O)N1CCCC1C(=O)NCCOc1cccc(F)c1 (stereo not given)", "Property Label": "cytotoxicity at 10 µM", "Unit Text": "%", "Measured Result": -7.81}

Now look at this one.
Summary for this compound, `Cn1cc(Br)c(=O)c(NS(=O)(=O)c2ccccc2F)c1` : cytotoxicity at 10 µM is -2.62

====

Test Summary: Toxicity liver stage against HepG2, at 10uM
Format: cell-based
Parameters: test concentration 10 uM, cell line HepG2-A16-CD81EGFP
Condition Summary: human, HepG2-A16-CD81EGFP cells; read-out: INHIBITION
Property Label: cytotoxicity at 10 µM (%)
Give bare numbers, in %.

{"Molecule": "Cc1ncccc1NS(=O)(=O)Cc1cccc(F)c1", "cytotoxicity at 10 µM [%]": 2.43}
{"Molecule": "Cn1nc2c(cc1=O)CN(c1ncnc3ccsc13)CC2", "cytotoxicity at 10 µM [%]": 9.3}
{"Molecule": "Cc1nn(C)c2cn(C(C)C(=O)NCc3ccccn3)nc12 (centres undefined)", "cytotoxicity at 10 µM [%]": 11.1}
{"Molecule": "CC(=O)N1CC[C@H](c2nc3cc(F)ccc3o2)C1", "cytotoxicity at 10 µM [%]": 0.835}
{"Molecule": "CCn1ncc2c1C(COC)N(C(=O)c1cscn1)CC2 (centres undefined)", "cytotoxicity at 10 µM [%]": -98.1}
{"Molecule": "CCc1nc(NCc2ccccn2)c2c(n1)c(C)nn2C", "cytotoxicity at 10 µM [%]": 8.92}
{"Molecule": "O=C(CCc1cc2n(n1)CCCN(C(=O)c1ccncc1)C2)NC1CC1", "cytotoxicity at 10 µM [%]": 12.2}
{"Molecule": "Cc1nccn1C1CCCN(C(=O)c2ccc3c(c2)COC3)C1 (centres undefined)", "cytotoxicity at 10 µM [%]": -10.8}

Kindly give each listed record's cytotoxicity at 10 µM.
1. O=C(NCCCO)Nc1cccc(I)c1
2. CNC(=O)c1noc(CN2CC[C@](C)(O)[C@H](C)C2)n1
3. O=C(CCn1cc(Cl)cn1)N1CCN(CCOc2ccccc2)CC1
4. Cc1ccc(-c2n[nH]cc2CNCC2CCc3nnc(C)n3C2)cc1 (centres undefined)
5. COCC(=O)N1CCC(c2cc(C(F)(F)F)c3c(C)noc3n2)CC1
6. CN(CCSc1nncn1CC(F)(F)F)c1ccccc1

### Response
[-6.1, -37.5, 4.92, -8.35, -28, -1.86]

Kindly give each listed record's cytotoxicity at 10 µM.
1. O=C(NCCNS(=O)(=O)c1ccc(C(F)(F)F)cc1)c1ccoc1
2. CC(C)c1noc(CN2CCC(c3nc4cc(Cl)ccc4o3)CC2)n1
3. CCc1n[nH]c(C2CN(C(=O)c3cnc(C)s3)CCO2)n1 (centres undefined)
4. Cc1ccc(CCNC(=O)c2cccnc2)o1
5. CS(=O)(=O)N1CCOCC12CCN(c1nncs1)CC2

### Response
1: -1.36; 2: 1.81; 3: -6.64; 4: -0.996; 5: 6.74
